target: BCRP (Homo sapiens (Human)); assay: BCRP MDCKII efflux assay (Assay 7); format: in vitro ADME; details: dog; efflux ratio Papp(B-A)/Papp(A-B), BCRP MDCKII cells; read-out: Assay 7 Pe Ratio
Sequence (Q9UNQ0 whole entry): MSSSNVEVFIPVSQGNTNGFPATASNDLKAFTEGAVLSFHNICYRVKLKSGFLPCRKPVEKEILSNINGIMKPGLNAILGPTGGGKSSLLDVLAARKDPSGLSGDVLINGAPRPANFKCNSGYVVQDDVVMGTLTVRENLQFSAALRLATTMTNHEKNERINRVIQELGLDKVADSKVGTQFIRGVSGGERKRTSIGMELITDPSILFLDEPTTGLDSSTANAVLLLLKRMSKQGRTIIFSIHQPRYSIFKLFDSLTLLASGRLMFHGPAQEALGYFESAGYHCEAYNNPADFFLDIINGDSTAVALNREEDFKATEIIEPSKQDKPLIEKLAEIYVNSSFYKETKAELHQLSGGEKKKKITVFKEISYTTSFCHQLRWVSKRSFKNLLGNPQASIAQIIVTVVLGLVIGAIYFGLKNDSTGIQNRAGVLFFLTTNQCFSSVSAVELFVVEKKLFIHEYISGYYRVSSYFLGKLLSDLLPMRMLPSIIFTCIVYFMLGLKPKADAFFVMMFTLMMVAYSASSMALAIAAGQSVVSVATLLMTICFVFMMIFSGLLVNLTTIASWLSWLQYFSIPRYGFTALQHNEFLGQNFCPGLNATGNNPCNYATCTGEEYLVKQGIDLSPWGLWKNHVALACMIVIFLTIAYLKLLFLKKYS
Entries get a class label from measured efflux ratio at 2 h, 1 µM. See ranges: lo (below 2), mid (2 to below 5), hi (5 or more)

The following compounds have reported results that may help.
# compound, target, assigned category
records = [
    ("C=CC(=O)N1CCN(c2ccc3ncnc(Nc4ccc(Oc5ccn6ncnc6c5)c(C)c4F)c3n2)C[C@H]1C(C)(C)C [Example 303]", "BCRP (Homo sapiens (Human))", "lo"),
    ("C=CC(=O)N1C[C@H]2C[C@@H]1CN2c1ccc2ncnc(Nc3ccc(Oc4ccn5ncnc5c4)c(C)c3F)c2n1 [Example 94]", "BCRP (Homo sapiens (Human))", "hi"),
]

Exercise: read the entry C=CC(=O)N1CCC[C@@H](c2ccc3ncnc(Nc4ccc(Oc5ccc6c(c5)ncn6C)c(C)c4F)c3n2)CC1 (racemic) [Example 147] and state which class it falls under.
mid

# bin label for C=CC(=O)N1CC[C@H]2C[C@@H](c3ccc4ncnc(Nc5cc(C)c(Oc6ccc7c(c6)ncn7C)cc5F)c4n3)C[C@H]21 (racemic) [Example 37]
lo

###

Catalogue of pIC50 values
Biological target: EGFR wild type (EGFR WT) (Homo sapiens (Human), UniProt P00533)
Sequence (P00533 25-1210): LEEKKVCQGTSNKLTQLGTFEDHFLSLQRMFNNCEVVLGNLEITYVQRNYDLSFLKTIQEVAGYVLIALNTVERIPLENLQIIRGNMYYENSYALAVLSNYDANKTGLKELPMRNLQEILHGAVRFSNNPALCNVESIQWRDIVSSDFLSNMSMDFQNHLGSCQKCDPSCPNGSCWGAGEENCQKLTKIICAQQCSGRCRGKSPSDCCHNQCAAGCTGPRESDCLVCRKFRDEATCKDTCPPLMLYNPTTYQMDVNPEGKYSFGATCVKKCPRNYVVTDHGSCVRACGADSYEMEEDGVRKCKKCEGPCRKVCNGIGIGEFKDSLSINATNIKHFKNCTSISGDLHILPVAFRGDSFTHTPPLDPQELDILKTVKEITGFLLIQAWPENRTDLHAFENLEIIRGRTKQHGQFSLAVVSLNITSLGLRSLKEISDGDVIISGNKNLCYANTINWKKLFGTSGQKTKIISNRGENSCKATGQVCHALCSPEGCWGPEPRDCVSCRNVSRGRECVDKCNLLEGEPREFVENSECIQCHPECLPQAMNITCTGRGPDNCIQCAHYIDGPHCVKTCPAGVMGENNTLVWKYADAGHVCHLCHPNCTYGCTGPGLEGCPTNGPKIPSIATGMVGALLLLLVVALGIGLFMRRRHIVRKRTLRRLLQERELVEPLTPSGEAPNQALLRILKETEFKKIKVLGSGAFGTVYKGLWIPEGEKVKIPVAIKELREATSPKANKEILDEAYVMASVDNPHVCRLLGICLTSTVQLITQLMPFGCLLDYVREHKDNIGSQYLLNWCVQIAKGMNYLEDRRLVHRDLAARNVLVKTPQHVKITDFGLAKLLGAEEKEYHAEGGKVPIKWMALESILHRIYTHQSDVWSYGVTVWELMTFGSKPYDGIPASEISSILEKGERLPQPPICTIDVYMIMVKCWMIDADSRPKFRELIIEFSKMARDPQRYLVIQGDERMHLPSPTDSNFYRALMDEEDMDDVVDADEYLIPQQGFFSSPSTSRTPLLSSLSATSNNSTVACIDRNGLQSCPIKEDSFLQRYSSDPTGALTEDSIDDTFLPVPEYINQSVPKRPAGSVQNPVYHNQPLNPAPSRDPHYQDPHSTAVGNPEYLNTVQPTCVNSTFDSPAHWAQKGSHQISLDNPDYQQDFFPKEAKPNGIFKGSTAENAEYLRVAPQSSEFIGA
Test: Cellular Phosphorylation Assay, Assay 5 (EGF-stimulated EGFR phosphorylation, NIH 3T3 cells)
Format: cell-based
Conditions: cellular EGFR WT phosphorylation, EGF-stimulated
Description: NIH 3T3 cells were engineered to express ErbB2 with Exon 20 YVMA insertion (HER2-YVMA (SEQ ID NO: 2); Assay 4) or EGFR wild type (EGFR WT; Assay 5) with constructs obtained from GenScript and grown in DMEM supplemented with 10% fetal bovine serum and 15 μg/ml blasticidin. […] Serially diluted compounds were added to the plates for 1 hour at 37° C./5% CO2. EGFR WT cells were stimulated with 100 ng/ml rEGF for an additional 10 minutes at 37° C./5% CO2. […]
pIC50: −log10 of the molar value.

A selection of reference data follows.
# compound, property name, result
measured = [
    ("C=CC(=O)N1C[C@H]2C[C@@H]1[C@H](c1ccc3ncnc(Nc4cc(C)c(Oc5cnc6c(c5)ncn6C)cc4F)c3n1)C2", "pIC50", "≤ 5.30"),
    ("C=CC(=O)N1C[C@H]2CC[C@@H]1[C@@H](c1ccc3ncnc(Nc4ccc(Oc5ccn6ncnc6c5)c(C)c4F)c3n1)C2", "pIC50", "≤ 5.30"),
    ("C=CC(=O)N1CCN(c2ccc3ncnc(Nc4cc(C)c(Oc5ccn6ncnc6c5)cc4F)c3n2)C[C@H]1COC", "pIC50", 6.42),
    ("C=CC(=O)N1CC[C@H]2C[C@@H]1CN2c1ccc2ncnc(Nc3ccc(Oc4ccn5ncnc5c4)c(Cl)c3F)c2n1", "pIC50", "≤ 5.30"),
    ("C=CC(=O)N1C[C@H]2CC[C@@H]1CN2c1ccc2ncnc(Nc3cc(Cl)c(Oc4ccn5ncnc5c4)cc3F)c2n1", "pIC50", "≤ 5.30"),
]

The record that follows has no pIC50 shown yet.
State its pIC50: C=CC(=O)N1CCN(c2ccc3ncnc(Nc4ccc(Oc5ccn6ncnc6c5)c(Cl)c4F)c3n2)C[C@@H]1C(F)F (racemic)
7.18
